# test_system: T1, human PD-1 (soluble PD-1 protein, R&D Systems) (human, UniProt Q15116 25-170, limits assumed)
# T1 construct: the kinetics paragraphs say only 'PD-1' / 'antigen'; also called hPD-1; soluble PD-1 immunogen
# T1 sequence (Q15116 25-170 limits assumed): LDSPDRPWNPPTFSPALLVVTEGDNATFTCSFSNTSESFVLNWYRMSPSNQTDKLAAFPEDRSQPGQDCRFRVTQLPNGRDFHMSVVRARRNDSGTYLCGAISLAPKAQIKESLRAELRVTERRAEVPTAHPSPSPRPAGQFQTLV
# measurement_notes: array SPR, mAb captured on anti-human IgG Fc, PD-1 as analyte
pKd: −log10 of the molar value.
Kindly return t if reported pKd is no lower than 7; return f if it is lower.

Example entries and their recorded answers appear below.
[
  {
    "binder": "A9 (antibody, V domains shown, Tested as full-length mAb expressed in CHO cells; also called antibody A9; L9H9) VH: QVQLVESGGGVVQPGRSLRLSCAASGFTFSNYGMHWVRQAPGKGLEWVAVIWYDGTNKFYADSVKGRFTISRDNSKNTLYLQMNSLRAEDTAVYYCATNSDDYWGQGTLVTVSS VL: AIQMTQSPSSLSASVGDRVTITCRASQDIRNDLGWYQQKPGKAPKLLIYAASLLRSGVPSRFSGSGSGTDFTLTISSLQPEDFATYYCLQDNNYPRTFGQGTKVEIK",
    "label": "t"
  },
  {
    "binder": "A3 (antibody, V domains shown, Tested as full-length mAb expressed in CHO cells; also called antibody A3; L3H3) VH: QVQLVESGGGEVQPGRSLRLSCAASGFTFSDYGMHWVRQAPGKGLEWVAVIWYDGSNKYYADSVKGRFTISRDNSKNTLYLQMNSLRAEDTAVYYCAGGGSYWGDYWGQGTLVTVSS VL: DIQMTQSPSSLSASVGDRVTITCRASQGIRNELGWYQQKPGKAPKRLIYAASSLQSGVPSRFSGSGSGTEFTLTISSLQPEDFATYYCLQHYIYPWTFGQGTKVEIKR",
    "label": "f"
  },
  {
    "binder": "A8 (antibody, V domains shown, Tested as full-length mAb expressed in CHO cells; also called antibody A8; L8H8) VH: QVQLVESGGGVVQPGRSLRLSCAASGFTFSSYGMHWVRQAPGKGLEWVAVIWYDGSIKYYADSVKGRFTISRDNSKNTLYLQMNSLRAEDTAVYYCANDILTGSFDYWGQGTLVTVSS VL: EIVLTQSPATLSLSPGERATLSCRASQSVSSYLAWYQQKPGQAPRLLIYDASNRATGIPARFSGSGSGTDFTLTISSLEPEDFAVYYCQQRNTWPYTFGQGTKLEIKR",
    "label": "f"
  },
  {
    "binder": "A10 (antibody, V domains shown, Tested as full-length mAb expressed in CHO cells; also called antibody A10; L10H10) VH: QVQLVQSGAEVKKPGASVKVSCKASGYTFAIYGISWVRQAPGQGLEWMGWISAYSDNSNYAQKLQGRVTMTTDTSTSTAYMELRSLRSDDTAVYYCVRDGSHGDYYYGMDVWGQGTTVTVSS VL: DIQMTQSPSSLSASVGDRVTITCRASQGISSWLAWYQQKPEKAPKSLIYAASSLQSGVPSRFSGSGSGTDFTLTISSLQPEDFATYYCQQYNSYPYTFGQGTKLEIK",
    "label": "t"
  }
]

Next:
Q) For this binder, is measured pKd 7 or higher? A4 (antibody, V domains shown, Tested as full-length mAb expressed in CHO cells; also called antibody A4; L4H4) VH: QVQLVQSGAEVKKPGASVKVSCKASGYTFATYGVSWVRQAPGQGLEWMGWISAYSDNINYAQNLQGRVTITTDTSTSTAYMELRSLRSDDTAVYYCARDGSHGDYYYGMDVWGQGTTVTVSS VL: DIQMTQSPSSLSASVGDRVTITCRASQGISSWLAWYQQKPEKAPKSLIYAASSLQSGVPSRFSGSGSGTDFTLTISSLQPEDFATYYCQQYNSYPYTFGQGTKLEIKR
A) t
